test system: LOX IMVI; assay: NCI tumour cell line growth inhibition, 48 h
Active and inactive are the calls of the source. Cut-off read from the data, not from the text of the source: active = GI50 up to about 1.1 µM and inactive = higher.
Provide the recorded GI50 for the entries that follow.

I have this compound here, `N#Cc1c(Cl)c2cccnc2n2c1nc1ccccc12` , and I need its recorded GI50. 1.66 µM (inactive)

Would you mind doing `CCN(CC)CCCNc1nc(=O)[nH]c(C)c1C(=O)Nc1c2ccccc2nc2ccccc12` as well? 8.43 µM (inactive)

Here is the next compound: `CC(=O)CC(=O)CCC(=O)Nc1cccc(C(F)(F)F)c1` > 100 µM (inactive)

Okay, and c1ccc(SC23C4C5C6C4C2C6C53)nc1 (stereo not given) ? > 100 µM (inactive)

Repeat for the following compound: `CSc1ccc(/C=C2\N=C(c3ccccc3)N(c3nc4cc(C)c(C)cc4s3)C2=O)cc1` 19.8 µM (inactive)

Request: `O=C(Oc1cccc(Cl)c1)c1cc2cc(CCl)ccc2oc1=O` 40.6 µM (inactive)

COC(=O)C(Cc1ccccc1)C(=O)NC(CNC(=O)OCc1ccccc1)C(=O)OCc1ccccc1 (stereo not given) ? 19.6 µM (inactive)

Try this compound too: O=C(O)C1CCC(=O)N1S(=O)(=O)c1ccccc1 (stereo not given) > 100 µM (inactive)

Next record, please: `Cc1ccc2nc(-n3c(/C=C/c4ccccc4O)nc4ccccc4c3=O)sc2c1` > 100 µM (inactive)

Okay, and COc1cccc(N2C(=O)/C(=C\c3ccccc3)SC2c2cc(OC)c(OC)c(OC)c2)c1 (stereo not given) ? 37.8 µM (inactive)

====

system: SF-268; test: NCI tumour cell line growth inhibition, 48 h
Calls of active or inactive are those of the source. No stated cut-off is given here; in the data, active = GI50 up to about 1.1 µM and inactive = higher. Where a SMILES comes first, the peptide text is derived from it. The star is where a group is joined. Boc = CC(C)(C)OC(=O)*; OSu = O=C1CCC(=O)N1O*
Task for the reader: assign each of the following compounds its reported GI50.

Consider the compound shown here: `BrCC[P+](c1ccccc1)(c1ccccc1)c1ccccc1` What is its recorded GI50? 2.13 µM (inactive)

And then `C[N+]1(C)CCC(C#N)(c2ccccc2)CC1` , what is it? > 100 µM (inactive)

Another compound to look at: `CN1CCN(c2n[nH]c(=O)c3c2nnn3Cc2ccccc2)CC1` > 100 µM (inactive)

What do you get for CC(=O)OC12c3ccccc3-c3ccccc3C1C1C(=O)N(C)C(=O)C12Cl (stereo not given) ? > 10 µM (inactive)

Same again, this time with `O=C(Oc1cccc(Cl)c1)c1cc2cc(CCl)ccc2oc1=O` 80 µM (inactive)

Could you do the same for `COc1cc([C@H]2Oc3cc(O)c4c(=O)cc(-c5ccc(O)cc5)oc4c3O[C@@H]2CO)ccc1O` , please? 2.28 µM (inactive)

Next compound: Cc1ccccc1NC(=O)C(=O)C(C1OC(=O)c2ccccc21)[N+](=O)[O-] (stereo not given) > 100 µM (inactive)

Please answer likewise for `O=C(O)/C(Cc1c[nH]nn1)=N\O` > 100 µM (inactive)

Thanks! And `O=[N+]([O-])c1ccc(-n2nnc(C3=NCCCN3)c2-c2ccc(Cl)cc2)cc1` ? > 100 µM (inactive)

Now this one: CC(NC(=O)C(NC(=O)OC(C)(C)C)C(C)C)C(=O)NCC(=O)ON1C(=O)CCC1=O (stereo not drawn) (Boc-Val-Ala-Gly-OSu; configuration not given here) > 100 µM (inactive)

====

tested on: XF498; assay: NCI tumour cell line growth inhibition, 48 h
The source made the active and inactive calls. Rule as the data show it: active = GI50 up to about 1.1 µM and inactive = higher.
parameter: GI50

What value of GI50 has been reported for the following molecule? O=C(c1ccc(Cl)cc1)C1OC12C(=O)Nc1ccccc12 (configuration not stated) 12.5 µM (inactive)

What about `C1CN1c1nc(N2CC2)nc(N2CC2)n1` ? 4.89 µM (inactive)

Please give the result for `O=C1c2ccccc2C(=O)c2nc(-c3ccccc3)c(-c3ccccc3)nc21` too. 14.4 µM (inactive)

// next record `N#CC(C#N)=C(N)/C(C#N)=C/c1cc(O)c(O)c(Br)c1` 35.7 µM (inactive)

// query: CC(C)C(=O)Nc1nc2c(ncn2C2OC(CO)C(O)C2O)c(=O)[nH]1 (configuration not stated) > 100 µM (inactive)

// next record `CN(C)c1ccc2nc3c(ccc4ccccc43)[o+]c2c1` 14.4 µM (inactive)

Same question for `O=C(Sc1sc(=S)sc1SC(=O)c1ccccc1)c1ccccc1` please. 55.2 µM (inactive)

====

tested on: RPMI-8226; assay: NCI tumour cell line growth inhibition, 48 h
Activity calls are given as the source filed them. Cut-off read from the data, not from the text of the source: active = GI50 up to about 1.1 µM and inactive = higher. Where a SMILES comes first, the peptide text is derived from it. The star is where a group is joined. Boc = CC(C)(C)OC(=O)*; OSu = O=C1CCC(=O)N1O*
For each record, write down the corresponding GI50.

What GI50 appears in the records for this compound with RPMI-8226? `CSCSCC(N)CO.Cc1[nH]c(=O)[nH]c(=O)c1/C=C/C(=O)O` > 625 µM (inactive)

Param item: CC(NC(=O)C(NC(=O)OC(C)(C)C)C(C)C)C(=O)NCC(=O)ON1C(=O)CCC1=O (stereo not drawn) (Boc-Val-Ala-Gly-OSu; configuration not given here) > 100 µM (inactive)

Try this compound next: `CNC1=Nc2ccc(Cl)cc2C(OP(=O)(N2CCOCC2)N2CCOCC2)=NC1` > 100 µM (inactive)

Next up: `Clc1ccc(Cl)c(/N=N/c2cc3c4c(c2)CCCN4CCC3)c1` > 10 µM (inactive)

# repeat for COC(=O)C(NC(=O)c1ccccc1)c1ccco1 (centres undefined) > 100 µM (inactive)

Ok, now `O=C1O[C@@H](c2ccccc2)C[C@H]1CN1CCOCC1` 14.6 µM (inactive)

Then what about the compound COc1ccc(C(NCCNC(c2ccc(OC)c(OC)c2)c2cc3c(cc2O)OCO3)c2cc3c(cc2O)OCO3)cc1OC (centres undefined) ? 2 µM (inactive)

Now give it for `N/N=C(/CC(O)(C(F)(F)F)C(F)(F)F)c1ccccc1` too. > 10 µM (inactive)

Next record, please: CCC1c2[nH]c3ccccc3c2C[C@H]2C(=O)NC(COC(C)(C)C)C(=O)N12 (some centres undefined) 32.4 µM (inactive)

====

tested on: SR; test: NCI tumour cell line growth inhibition, 48 h
Active and inactive are the calls of the source. Cut-off read from the data, not from the text of the source: active = GI50 up to about 1.1 µM and inactive = higher.
Please reply with one of these outcomes: Y = active, N = inactive

Query: recorded result category for `O=[N+]([O-])c1ccc(-n2nnc(C3=NCCCN3)c2-c2ccc(Cl)cc2)cc1` in this test N

Subsequent entry: COC(=O)C(Cc1ccccc1)C(=O)NC(CNC(=O)OCc1ccccc1)C(=O)OCc1ccccc1 (stereo not given) N

// same read-out, input: `C/C(=C\C(=O)Nc1ccc2[nH]nnc2c1)Nc1ccc2[nH]nnc2c1` N

Lookup `O=c1nc2ccc3sc4ccccc4c(=O)c3n2c(=O)[nH]1` N

Also need O=C(Cc1ccccc1)NN1C(=O)C(Cl)C1c1cc(Br)cc(Br)c1O (stereo not given) , thanks. Y

And what about the compound `BrC1=CN2C[n+]3cc(Br)c4ccccc4c3N=C2c2ccccc21` ? N

Let us now turn to `N#C/C(=C/c1cccc2ccccc12)C(=O)c1ccccc1` N

Query `CC1(C)C(=O)N(c2ccccc2)C(=O)N1c1nc2ccccc2[nH]1` next N

Proceed to Cn1cc(-c2ccc(CCOC3CCCCO3)cc2)c2c(C#N)cccc21 (stereo not given) N

Now the compound `O=CC12CCCN1CCC2` N

Then what about the compound C[N+]1=C2[B-](C(C)(C)C)=[N+](C(C)(C)C)[B-]2(C(C)(C)C)[N+](C)=C2[B-](C(C)(C)C)=[N+](C(C)(C)C)[B-]21C(C)(C)C (stereo not given) ? N

Cool, now `N#CC(C#N)=C(N)/C(C#N)=C/c1cc(O)c(O)c(Br)c1` N

Cool, now COC(=O)C1CC23C=CCN4CC(C2C)C2(c5ccccc5NC12)C43 (stereo not given) N

Entry O=C1C2C(C(=O)N1O)N(Cc1ccccc1)C(=O)N2Cc1ccccc1 (stereo not given) please N

Consider next the compound `CCN(CC)c1ccc(/N=N/c2ccc(-c3nc4cccnc4s3)cc2)cc1` in the same way. N

====

tested on: NCI-H226; experiment: NCI tumour cell line growth inhibition, 48 h
Calls of active or inactive are those of the source. Cut-off read from the data, not from the text of the source: active = GI50 up to about 1.1 µM and inactive = higher.
parameter: GI50

Please report the recorded GI50 for `Cc1cc(N(CCC#N)CCC#N)ccc1C(=N/NC(=O)c1cc(Cl)ccc1O)/N=N/c1cccc([N+](=O)[O-])c1` . 25.1 µM (inactive)

Also CC(C)(C)OC(=O)CCCCCNC(=O)CCCCCNC(=O)CCC(CN(CC(=O)OCc1ccccc1)CC(=O)OCc1ccccc1)N(CC(=O)OCc1ccccc1)CC(=O)OCc1ccccc1 (stereo unspecified) ? > 100 µM (inactive)

Also need `C#CC1(O)c2ccccc2C(=O)c2ccccc21` , thanks. > 100 µM (inactive)

Now the compound `COc1cc([C@H]2Oc3cc(O)c4c(=O)cc(-c5ccc(O)cc5)oc4c3O[C@@H]2CO)ccc1O` 18.5 µM (inactive)

Can you handle CC(=O)OC12c3ccccc3-c3ccccc3C1C1C(=O)N(C)C(=O)C12Cl (stereo unspecified) next? > 10 µM (inactive)

Another compound to check: `CCOc1ccc(N2C(=O)/C(=C/c3ccc(N(CCC#N)CCC#N)cc3)N=C2c2cc([N+](=O)[O-])ccc2Cl)cc1` 42.4 µM (inactive)

Then `C=CCOC(OCC=C)/C(Br)=C/C` ? > 100 µM (inactive)

Moving on to the next compound: `CN(C=O)/C=C/c1cc(O)ccc1O` 39.7 µM (inactive)

// query: O=C(/C=C/c1ccc(O)c(O)c1)OCc1ccccc1 [BENZYL CAFFEATE] 31.3 µM (inactive)

What about CCOc1cc2c(cc1OC(C)=O)C(=O)CC[C@H]1C3CC[C@H](OC(C)=O)[C@@]3(C)CC[C@H]21 (stereo partly specified) ? > 100 µM (inactive)

Cool, now `O=c1c2cc3c(cc2[nH]c2ncccc12)OCO3` > 10 µM (inactive)
